Values compiled from ChEMBL document CHEMBL1201862.

Tested on: SF-295
Test: NCI tumour cell line growth inhibition, 48 h
Activity calls are given as the source filed them. Rule as the data show it: active = GI50 up to about 1.1 µM and inactive = higher.
Parameter call: string, one of 1 (yes) for active, 0 (no) for inactive

[
  {
    "Compound": "CCOC(=O)c1csc(NC(=O)CCN2CCCC2)n1",
    "Category": "0 (no)"
  },
  {
    "Compound": "O=[N+]([O-])c1ccc(-c2nn3c(C45CC6CC(CC(C6)C4)C5)nnc3s2)c(Cl)c1",
    "Category": "0 (no)"
  },
  {
    "Compound": "CC/C(=N/O)C(C)C(=O)CCC(=O)Nc1ccc(Cl)cc1 (centres undefined)",
    "Category": "0 (no)"
  }
]

Please share the test call associated with `CN1CCN(C)C1c1cccc(C2N(C)CCN2C)c1` .
0 (no)

Please share the test call associated with `CC1=CC(=O)[C@@H](O)[C@]2(C)[C@H]3[C@@]4(O)OC[C@]35[C@H]([C@@H](C)[C@H]4O)[C@@H](O)C(=O)O[C@@H]5C[C@@H]12` .
1 (yes)

Please share the test call associated with `Cc1c(C(=O)/C=C/c2ccccc2[N+](=O)[O-])[n+]([O-])c2ccccc2[n+]1[O-]` .
0 (no)

Please share the test call associated with `COC(=O)/C=C/C(=O)Nc1cc(Cl)c(Cl)cc1CC(=O)N(C)[C@H]1CCCC[C@@H]1N1CCCC1` .
0 (no)

Please share the test call associated with `CCCCCCCCCCCCCP(=O)(O)NCC(N)=O` .
0 (no)

Please share the test call associated with COc1ccc(/C=C2/C(=O)C(c3ccccc3)N(c3ccccc3)C2=O)cc1OC (centres undefined) .
0 (no)
